biological target: NCP1, nucleosome core particle with 3xFLAG-H3K36NleCS+me2 (X. laevis | , cysteine at position 36 alkylated with vinyl dimethylsulfonium 4 (NleCS+me2)); assay: MST
Measured Quantity: Kd

[[record]]
binder = "PWWP domain of NSD2 (domain or fragment) VGDLVWSKVSGYPWWPCMVSADPLLHSYTKLKGQKKSARQYHVQFFGDAPERAWIFEKSLVAFEG"
result = "1.1 µM"

